- Study System: human farnesyltransferase (FTase) (Homo sapiens, UniProt P49354+P49356)
- Assay Details: FTase inhibitory assay (fluorescence, Dansyl-GCVLS)
- Format: biochemical
- Experimental Parameters: inhibition of human FTase at 100 μM of tested compound; mean of two experiments
Answer Not met if % FTI is under 60%, and Met if it is 60% or more.

[
  {
    "Compound": "O=C(NCc1ccccc1C(F)(F)F)[C@@H]1CS[C@H]2c3ccccc3C(=O)N12 [4aC]",
    "Cat": "Met"
  },
  {
    "Compound": "COc1ccc(CNC(=O)[C@@H]2CS[C@H]3c4ccccc4C(=O)N23)cc1 [4aF]",
    "Cat": "Met"
  },
  {
    "Compound": "C[C@@]12SC[C@@H](C(=O)NCc3ccccc3C(F)(F)F)N1C(=O)c1ccccc12 [4bC]",
    "Cat": "Not met"
  },
  {
    "Compound": "COc1cc(CNC(=O)[C@@H]2CS[C@@]3(C)c4ccccc4C(=O)N23)cc(OC)c1OC [4bJ]",
    "Cat": "Met"
  },
  {
    "Compound": "O=C(NCc1ccc(Cl)cc1Cl)[C@@H]1CS[C@H]2c3ccccc3C(=O)N12 [4aH]",
    "Cat": "Not met"
  },
  {
    "Compound": "O=C(NCc1cccc(C(F)(F)F)c1)[C@@H]1CS[C@H]2c3ccccc3C(=O)N12 [4aD]",
    "Cat": "Not met"
  },
  {
    "Compound": "COc1ccc(CNC(=O)C2CS(=O)(=O)C3c4ccccc4C(=O)N23)cc1OC (centres unmarked) [7aI]",
    "Cat": "Not met"
  },
  {
    "Compound": "COc1ccc(CNC(=O)[C@@H]2CS(=O)(=O)[C@@]3(C)c4ccccc4C(=O)N23)cc1OC [7bI]",
    "Cat": "Not met"
  },
  {
    "Compound": "COc1ccc(CNC(=O)[C@@H]2CS[C@@]3(C)c4ccccc4C(=O)N23)cc1 [4bF]",
    "Cat": "Met"
  },
  {
    "Compound": "COc1cccc(CNC(=O)[C@@H]2CS(=O)(=O)[C@@]3(C)c4ccccc4C(=O)N23)c1 [7bE]",
    "Cat": "Not met"
  },
  {
    "Compound": "C[C@]12c3ccccc3C(=O)N1[C@H](C(=O)NCc1cccc(C(F)(F)F)c1)C[S+]2[O-] (some centres unmarked) [5bD]",
    "Cat": "Not met"
  },
  {
    "Compound": "COc1ccc(CNC(=O)[C@@H]2C[S+]([O-])[C@@]3(C)c4ccccc4C(=O)N23)cc1 (some centres unmarked) [5bF]",
    "Cat": "Met"
  },
  {
    "Compound": "COc1cccc(CNC(=O)[C@@H]2C[S+]([O-])[C@@]3(C)c4ccccc4C(=O)N23)c1 (some centres unmarked) [5bE]",
    "Cat": "Met"
  },
  {
    "Compound": "COc1ccc(CNC(=O)[C@@H]2C[S+]([O-])[C@@]3(C)c4ccccc4C(=O)N23)cc1OC (some centres unmarked) [5bI]",
    "Cat": "Not met"
  },
  {
    "Compound": "C[C@]12c3ccccc3C(=O)N1[C@H](C(=O)NCc1ccc(Cl)cc1Cl)CS2(=O)=O [7bH]",
    "Cat": "Met"
  },
  {
    "Compound": "COc1cccc(CNC(=O)[C@@H]2CS(=O)(=O)[C@H]3c4ccccc4C(=O)N23)c1 [7aE]",
    "Cat": "Not met"
  },
  {
    "Compound": "C[C@@]12SC[C@@H](C(=O)NCc3cccc(C(F)(F)F)c3)N1C(=O)c1ccccc12 [4bD]",
    "Cat": "Not met"
  }
]

All figures here come from paper PMC11855478.
